# MEASURED_ON: Testis-specific serine/threonine-protein kinase 1 (Homo sapiens) (UniProt Q9BXA7)
# Sequence (Q9BXA7 whole entry): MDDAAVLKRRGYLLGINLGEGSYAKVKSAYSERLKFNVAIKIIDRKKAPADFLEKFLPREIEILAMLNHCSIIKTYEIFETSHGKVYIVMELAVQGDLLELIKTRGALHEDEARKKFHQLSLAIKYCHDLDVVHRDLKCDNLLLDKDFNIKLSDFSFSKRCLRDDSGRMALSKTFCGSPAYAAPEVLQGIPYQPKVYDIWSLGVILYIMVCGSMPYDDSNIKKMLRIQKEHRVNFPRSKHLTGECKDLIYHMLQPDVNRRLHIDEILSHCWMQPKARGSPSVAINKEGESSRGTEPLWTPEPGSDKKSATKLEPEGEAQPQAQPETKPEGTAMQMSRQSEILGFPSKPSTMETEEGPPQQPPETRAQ
# EXPERIMENTAL_PARAMETERS: at 1 µM;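 note: reported value is the mean inhibition, from the GSK PKIS kinase screening panel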
Listed compounds paired with reported inhibition
MEASUREMENT_LABEL: inhibition (%)

> print(dat)
                                   compound  measurement.label  value.unit  reported.value
1  CC(C)(CO)CNC(=O)c1ccc2c(c1)/C(=N/Nc1ccc(S(N)(=O)=O)cc1)C(=O)N2         inhibition           %              11
2  Fc1ccc(-c2cc(-c3c[nH]nc3-c3ccccn3)ccn2)cc1         inhibition           %            9.18
3  CC1=C(C(=O)Nc2cc(Cl)c3[nH]ncc3c2)C(c2ccc(C(F)(F)F)cc2)CC(=O)N1 (stereo not given)         inhibition           %             3.9
4       COc1cc(/C=N/Nc2ncnc3[nH]ncc23)ccc1O         inhibition           %            11.6
5  CNC(=O)c1cc(-c2ccc(F)cc2)cc(-c2ccc(S(=O)(=O)N3CCCC3)cc2)c1N         inhibition           %            3.21
